# system name: T1, APG293 (human CD95L-T4) (human)
# T1 chain: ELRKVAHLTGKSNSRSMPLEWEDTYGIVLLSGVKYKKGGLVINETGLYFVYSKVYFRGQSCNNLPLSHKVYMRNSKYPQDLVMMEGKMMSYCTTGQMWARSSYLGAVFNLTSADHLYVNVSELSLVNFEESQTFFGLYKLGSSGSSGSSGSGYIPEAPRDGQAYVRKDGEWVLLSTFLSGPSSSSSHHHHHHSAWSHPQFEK
# experimental details: cell-based or functional assay
recorded metric: EC50, Assay 6: antagonism of CD95L-T4-induced apoptosis on Jurkat A3 cells (µg/mL)
Note: unit µg/mL is implicit; provide only the numeric part.

{"binder": "scFv-minibody SEQ ID 49 (scFv) scFv: EVQLVESGGGLVQPGGSLRLSCAASGFSFSDHYWMCWVRQAPGKGLEWVACIYTADSDSYYASWAKGRFTISKDSSKNTLYLQMNSLRAEDTAVYYCARNGAYAGGPYGDLWGQGTLVTVSGGGSGGGSGGGSGGGSDIQMTQSPSSLSASVGDRVTITCKASQSIRTSLVWYQQKPGKAPKLLIYKASDLPSGVPSRFSGSGSGTDFTLTISSLQPEDFATYYCQSYDFRDTINNGHSFGQGTKVEIKGSGSSGQPREPQVYTLPPSREEMTKNQVSLTCLVKGFYPSDIAVEWESQGSPENNYKTTPPVLDSDGSFFLYSKLTVDKSRWQQGNVFSCSVMHEALHNHYTQKSLSLSPGSSSSSSAWSHPQFEK", "unit symbol": "µg/mL", "result number": 0.127}

Read the next record carefully.
Ask: // query EC50, Assay 6: antagonism of CD95L-T4-induced apoptosis on Jurkat A3 cells value for entry scFv-minibody SEQ ID 37 (scFv) scFv: QSLEESGGDLVKPGASLTLTCTASGFSFSSGYDMCWVRQAPGKGLEWIACIDTDNDATYYASWAKGRFTISKPSSTTVLLQITSLTAADTATYFCATTHGDYVAFKLWGPGTLVTVSGGGSGGGSGGGSGGGSQVLTQTASSVSAAVGGTVTINCQSSQSVYKNNDLSWYQQKPRQPPKLLIYQASKLASGVPSRFKGSGSGTQFTLTIGDLESDDGATYYCAGGYTASIYAFGGGTEVVGSGSSGQPREPQVYTLPPSREEMTKNQVSLTCLVKGFYPSDIAVEWESQGSPENNYKTTPPVLDSDGSFFLYSKLTVDKSRWQQGNVFSCSVMHEALHNHYTQKSLSLSPGSSSSSSAWSHPQFEK
Reply: 0.118
